PROCEDURE DETAILS: The drug is tested on the gut metagenome community of MV08 with ENA study accession number: PRJEB31790 and ENA sample accession number: SAMEA5537489 for biotransformation. The drug concentrations were measured over 9 timepoints collected between 0 and 24 hours of incubation by liquid-chromatography-coupled mass spectrometry (LC–MS)
Assay type: ADME
Design: dose 2 uM, timepoint 0, 1, 2, 4, 6, 8, 12, 18, 24 hours
EXPERIMENTAL PARAMETERS: 2 µM

{"COMPOUND": "C[C@@H]1C[C@H]2[C@@H]3CCC4=CC(=O)C=C[C@]4(C)[C@@]3(F)[C@@H](O)C[C@]2(C)[C@@]1(O)C(=O)CO", "Bacterial Biotransformation": "Compound NOT metabolized"}
{"COMPOUND": "COc1ccc([C@@H]2Sc3ccccc3N(CCN(C)C)C(=O)[C@@H]2OC(C)=O)cc1", "Bacterial Biotransformation": "Compound NOT metabolized"}
{"COMPOUND": "CC(=O)OCC(CCn1cnc2cnc(N)nc21)COC(C)=O", "Bacterial Biotransformation": "Compound metabolized"}
{"COMPOUND": "C#C[C@]1(OC(C)=O)CC[C@H]2[C@@H]3CCC4=CC(=O)CC[C@@H]4[C@H]3CC[C@@]21C [NORETHINDRONE ACETATE]", "Bacterial Biotransformation": "Compound metabolized"}
